Field: pKi. Provide a value for each of the molecules that follow.
- TGT: UniProt P00734
- METHOD NOTES: Inhibition of thrombin (unknown origin) at 25 degC by chromogenic substrate assay
pKi: −log10 of the molar value.

Recorded pKi (molecule Cc1cc2ccc1[C@@H](C)COC(=O)Nc1ccc(C3(c4nnn[nH]4)CC3)c(c1)CN(C)C(=O)[C@@H]2Nc1ccc2c(N)ncc(F)c2c1 ): < 4.88

pKi reported for this molecule Cc1cc2ccc1[C@@H](C)COC(=O)Nc1ccc(C3(C(=O)O)CCOCC3)c(c1)CN(C)C(=O)[C@@H]2Nc1ccc2c(N)ncc(F)c2c1 : < 4.88

Per the records, this molecule ( Cc1cc2ccc1[C@@H](C)COC(=O)Nc1ccc(C3CC3)c(c1)CN(C)C(=O)[C@@H]2Nc1ccc2c(N)ncc(F)c2c1 ) has pKi equal to 4.74

What the record says about Cc1cc2ccc1[C@@H](C)COC(=O)Nc1ccc(C3(C(=O)O)CC3)c(c1)CN(C)C(=O)[C@@H]2Nc1ccc2c(N)ncc(F)c2c1 : pKi is < 4.88

* * *

Please provide measured pKi for the entries that follow.
- TGT: Coagulation factor VII/tissue factor (Homo sapiens, UniProt P08709)
- Sequence (P08709 61-212 limits assumed): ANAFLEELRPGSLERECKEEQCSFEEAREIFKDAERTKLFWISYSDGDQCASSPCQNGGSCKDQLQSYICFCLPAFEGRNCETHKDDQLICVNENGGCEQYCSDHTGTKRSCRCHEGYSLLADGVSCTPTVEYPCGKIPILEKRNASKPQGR
- Sequence (P08709 213-466 limits assumed): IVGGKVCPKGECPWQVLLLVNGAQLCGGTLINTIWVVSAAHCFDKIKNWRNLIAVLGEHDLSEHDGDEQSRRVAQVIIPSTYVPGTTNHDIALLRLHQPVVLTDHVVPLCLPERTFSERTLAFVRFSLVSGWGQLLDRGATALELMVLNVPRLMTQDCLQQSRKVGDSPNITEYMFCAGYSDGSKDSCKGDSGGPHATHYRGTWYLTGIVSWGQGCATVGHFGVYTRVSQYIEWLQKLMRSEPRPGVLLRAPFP
- Sequence (P13726 33-295 partner limits assumed): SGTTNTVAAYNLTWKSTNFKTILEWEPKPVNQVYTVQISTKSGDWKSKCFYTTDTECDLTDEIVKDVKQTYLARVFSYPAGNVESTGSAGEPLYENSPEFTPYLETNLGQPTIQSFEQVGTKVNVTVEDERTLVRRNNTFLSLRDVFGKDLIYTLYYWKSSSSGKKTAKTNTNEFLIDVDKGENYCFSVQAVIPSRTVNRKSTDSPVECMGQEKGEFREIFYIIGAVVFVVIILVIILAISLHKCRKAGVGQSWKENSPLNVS
- METHOD NOTES: Inhibition of recombinant human TF-factor 7a using factor 10 as substrate at 37 degC
- Type: protein-complex assay
In simple prose, pKi is minus the logarithm base ten of a concentration in moles per litre.

Notebook: Cc1cc2ccc1[C@@H](C)COC(=O)Nc1ccc(C3(C(=O)O)CCOCC3)c(c1)CN(C)C(=O)[C@@H]2Nc1ccc2c(N)ncc(F)c2c1 , pKi read as 8.36

According to the records, this molecule Cc1cc2ccc1[C@@H](C)COC(=O)Nc1ccc(C3(C(=O)O)CCC3)c(c1)CN(C)C(=O)[C@@H]2Nc1ccc2c(N)ncc(F)c2c1 displays pKi of 9.85

For record Cc1cc2ccc1[C@@H](C)COC(=O)Nc1ccc(C3CC3)c(c1)CN(C)C(=O)[C@@H]2Nc1ccc2c(N)ncc(F)c2c1 the listed pKi is 7.74

* * *

- METHOD NOTES: Permeability from apical to basolateral side in human Caco2 cells
- Assay type: ADME, cell-based
- ASSAY SETUP: Caco-2, read-out: permeability
RESULT TYPE: Papp A→B

Recorded result, Cc1cc2ccc1[C@@H](C)COC(=O)Nc1ccc(C3CC3)c(c1)CN(C)C(=O)[C@@H]2Nc1ccc2c(N)nccc2c1 , Papp A→B: < 1.5 ×10⁻⁶ cm/s

* * *

- METHOD NOTES: Metabolic stability in human liver microsomes assessed as compound remaining after 10 mins
- Type: ADME
- ASSAY SETUP: read-out: Stability
RESULT TYPE: remaining at 10 min (%)
Output spec: scalar in %, unitless text.

// Cc1cc2ccc1[C@@H](C)COC(=O)Nc1ccc(C3(C(=O)O)CC3)c(c1)CN(C)C(=O)[C@@H]2Nc1ccc2c(N)ncc(F)c2c1 : remaining at 10 min value = 100

* * *

- METHOD NOTES: Clearance in po or iv dosed Beagle dog by LC-MS/MS analysis
- Assay type: ADME, organism-based, Canis lupus familiaris
- ASSAY SETUP: in vivo
I'd be grateful if you could share measured clearance for these entries.
Report as a plain number; the unit mL/min/kg is understood.

Entry Cc1cc2ccc1[C@@H](C)COC(=O)Nc1ccc(S(=O)(=O)C3CC3)c(c1)CN(C)C(=O)[C@@H]2Nc1ccc2c(N)nccc2c1 — recorded clearance = 29

Summary for this compound, Cc1cc2ccc1[C@@H](C)COC(=O)Nc1ccc(C3CC3)c(c1)CN(C)C(=O)[C@@H]2Nc1ccc2c(N)nccc2c1 : clearance is 2.2

* * *

- METHOD NOTES: Permeability of the compound at pH 7.4 by PAMPA assay
- Format: ADME
- ASSAY SETUP: read-out: permeability
Please assign no whenever Papp is at or above 4 ×10⁻⁶ cm/s, and yes whenever it is below.

Hi there! Is Papp for Cc1cc2ccc1[C@@H](C)COC(=O)Nc1ccc(C3(C(=O)O)CC3)c(c1)CN(C)C(=O)[C@@H]2Nc1ccc2c(N)ncc(F)c2c1 below 4 ×10⁻⁶ cm/s, do you know?
no

Below 4 ×10⁻⁶ cm/s on Papp? Entry Cc1cc2ccc1[C@@H](C)COC(=O)Nc1ccc(C3(C(=O)O)CCOCC3)c(c1)CN(C)C(=O)[C@@H]2Nc1ccc2c(N)ncc(F)c2c1
yes

Field: below-cutoff. Rule: recorded Papp strictly less than 4 ×10⁻⁶ cm/s. Subject: Cc1cc2ccc1[C@@H](C)COC(=O)Nc1ccc(C3(C(=O)O)CCC3)c(c1)CN(C)C(=O)[C@@H]2Nc1ccc2c(N)ncc(F)c2c1
yes

Just wondering, is Papp of Cc1cc2ccc1[C@@H](C)COC(=O)Nc1ccc(C3(C(=O)O)CCCCC3)c(c1)CN(C)C(=O)[C@@H]2Nc1ccc2c(N)ncc(F)c2c1 below 4 ×10⁻⁶ cm/s?
no

Please indicate whether the reported Papp of Cc1cc2ccc1[C@@H](C)COC(=O)Nc1ccc(C3(c4nnn[nH]4)CC3)c(c1)CN(C)C(=O)[C@@H]2Nc1ccc2c(N)ncc(F)c2c1 is strictly below 4 ×10⁻⁶ cm/s.
no

* * *

- METHOD NOTES: Fraction unbound in human plasma
- Format: ADME, cell-free
Give fraction unbound for every item shown.
The answer should be written as a number, with no unit following it.

Sample Cc1cc2ccc1[C@@H](C)COC(=O)Nc1ccc(C3(C(=O)O)CCCC3)c(c1)CN(C)C(=O)[C@@H]2Nc1ccc2c(N)ncc(F)c2c1 ; fraction unbound observed: 0.028

Entry Cc1cc2ccc1[C@@H](C)COC(=O)Nc1ccc(C3(C(=O)O)CCCCC3)c(c1)CN(C)C(=O)[C@@H]2Nc1ccc2c(N)ncc(F)c2c1 ; fraction unbound = 0.017

Entry Cc1cc2ccc1[C@@H](C)COC(=O)Nc1ccc(C3(C(=O)O)CCOCC3)c(c1)CN(C)C(=O)[C@@H]2Nc1ccc2c(N)ncc(F)c2c1 , fraction unbound reported as 0.058

Please fill in: fraction unbound reported for Cc1cc2ccc1[C@@H](C)COC(=O)Nc1ccc(C3(C(=O)O)CCC3)c(c1)CN(C)C(=O)[C@@H]2Nc1ccc2c(N)ncc(F)c2c1 = 0.033

Short answer for Cc1cc2ccc1[C@@H](C)COC(=O)Nc1ccc(C3(c4nnn[nH]4)CC3)c(c1)CN(C)C(=O)[C@@H]2Nc1ccc2c(N)ncc(F)c2c1 : fraction unbound was 0.018

Memo: Cc1cc2ccc1[C@@H](C)COC(=O)Nc1ccc(C3(C(=O)O)CC3)c(c1)CN(C)C(=O)[C@@H]2Nc1ccc2c(N)ncc(F)c2c1 , reported fraction unbound: 0.044

* * *

Exercise: state measured Ki for each of the molecules provided.
- TGT: Vitamin K-dependent protein C (Homo sapiens)
- Sequence (P04070 43-197 limits assumed): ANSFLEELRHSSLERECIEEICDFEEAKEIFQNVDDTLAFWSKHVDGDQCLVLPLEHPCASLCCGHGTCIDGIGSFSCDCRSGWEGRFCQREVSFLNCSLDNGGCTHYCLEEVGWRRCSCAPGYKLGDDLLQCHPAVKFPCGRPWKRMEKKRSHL
- Sequence (P04070 212-461 limits assumed): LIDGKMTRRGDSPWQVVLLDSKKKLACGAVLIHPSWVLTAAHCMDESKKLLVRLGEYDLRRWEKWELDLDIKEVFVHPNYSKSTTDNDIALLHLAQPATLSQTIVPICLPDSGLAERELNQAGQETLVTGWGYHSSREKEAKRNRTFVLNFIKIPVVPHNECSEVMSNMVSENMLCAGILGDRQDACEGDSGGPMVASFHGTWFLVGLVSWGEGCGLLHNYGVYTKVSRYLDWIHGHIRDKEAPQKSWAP
- METHOD NOTES: Inhibition of activated protein C (unknown origin) at 37 degC by chromogenic substrate assay
Quick note: give the figure in nM, leave out the unit.

Entry Cc1cc2ccc1[C@@H](C)COC(=O)Nc1ccc(C3(C(=O)O)CCOCC3)c(c1)CN(C)C(=O)[C@@H]2Nc1ccc2c(N)ncc(F)c2c1 , Ki reported as 1600

GET /value?item= Cc1cc2ccc1[C@@H](C)COC(=O)Nc1ccc(C3(C(=O)O)CC3)c(c1)CN(C)C(=O)[C@@H]2Nc1ccc2c(N)ncc(F)c2c1 &field=Ki returns 70

So, Cc1cc2ccc1[C@@H](C)COC(=O)Nc1ccc(C3(c4nnn[nH]4)CC3)c(c1)CN(C)C(=O)[C@@H]2Nc1ccc2c(N)ncc(F)c2c1 ? Its Ki was 175

Value of Ki reported for the molecule Cc1cc2ccc1[C@@H](C)COC(=O)Nc1ccc(C3CC3)c(c1)CN(C)C(=O)[C@@H]2Nc1ccc2c(N)ncc(F)c2c1 is 220

Entry under test: Cc1cc2ccc1[C@@H](C)COC(=O)Nc1ccc(C3(C(=O)O)CCC3)c(c1)CN(C)C(=O)[C@@H]2Nc1ccc2c(N)ncc(F)c2c1 . Its Ki was 725

Entry Cc1cc2ccc1[C@@H](C)COC(=O)Nc1ccc(C3(C(=O)O)CCCC3)c(c1)CN(C)C(=O)[C@@H]2Nc1ccc2c(N)ncc(F)c2c1 — recorded Ki = 340

// field: Ki; key: Cc1cc2ccc1[C@@H](C)COC(=O)Nc1ccc(C3(C(=O)O)CCCCC3)c(c1)CN(C)C(=O)[C@@H]2Nc1ccc2c(N)ncc(F)c2c1 ; value = 155

* * *

- TGT: Coagulation factor VII/tissue factor (Homo sapiens)
- METHOD NOTES: Inhibition of recombinant human TF-factor 7a using factor 10 as substrate at 37 degC
- Format: protein-complex assay
Please respond with reported pKi for every item in the list.
The scale used: pKi is minus the common logarithm of the concentration in molar units.

Quick note, pKi for Cc1cc2ccc1[C@@H](C)COC(=O)Nc1ccc(C3(C(=O)O)CCCC3)c(c1)CN(C)C(=O)[C@@H]2Nc1ccc2c(N)ncc(F)c2c1 landed at 9.66

What the record says about Cc1cc2ccc1[C@@H](C)COC(=O)Nc1ccc(C3(c4nnn[nH]4)CC3)c(c1)CN(C)C(=O)[C@@H]2Nc1ccc2c(N)ncc(F)c2c1 : pKi is 9.14

For record Cc1cc2ccc1[C@@H](C)COC(=O)Nc1ccc(C3(C(=O)O)CCCCC3)c(c1)CN(C)C(=O)[C@@H]2Nc1ccc2c(N)ncc(F)c2c1 the listed pKi is 10.22
